Reference source: patent US8431563B2

# ASSAYED_SYSTEM: interaction between glucokinase (GK) and glucokinase regulatory protein (GKRP) (Homo sapiens, UniProt Q14397)
# PROTOCOL_DESCRIPTION: biochemical
# Format: binding
# RECORDED_CONDITIONS: avi-tagged GKRP, GK-fluorescein, AlphaScreen beads; read-out: GK-GKRP IC50 (Binding)
# Description: GK-GKRP Binding Assay Protocol This assay is used to directly measure the interaction between glucokinase (GK) and glucokinase regulatory protein (GKRP). Begin by preparing the following solutions. Assay Buffer: 20 mM Tris, pH 7.5/0.05% BSA/1 mM DTT/1 μM sorbitol-6-phosphate. […] Combine the following reagents in a white 96-well half area plate. Pipette 14 μl of the diluted avi-tagged GKRP into each well. […] After 2 hours read the plate using an Envision plate reader (Perkin Elmer, Waltham Mass.).
pIC50: −log10 of the molar value.
# if value of pIC50 reaches 7, tag YES; if it stays below, tag NO

Enquiry: Can Cn1cnc(COC[C@H]2CN(S(=O)(=O)c3cccs3)CCN2c2ccc(C(C)(O)C(F)(F)F)cc2)c1 (single isomer, unassigned) [Example 119 Peak #1] be said to have pIC50 at or above 7?
Return: NO

Enquiry: Can CC(C)CN(C[C@H]1CN(S(=O)(=O)c2ccc(N)s2)CCN1c1ncc(C(O)(C(F)(F)F)C(F)(F)F)cn1)S(C)(=O)=O be said to have pIC50 at or above 7?
Return: YES

Enquiry: Can Cn1cnc(COC[C@H]2CN(S(=O)(=O)c3cccs3)CCN2c2ccc(C(C)(O)C(F)(F)F)cc2)c1 (single isomer, unassigned) [Example 119 Peak #2] be said to have pIC50 at or above 7?
Return: NO

Enquiry: Can C[C@H]1C(=O)NCCN1C[C@H]1CN(S(=O)(=O)c2cccs2)CCN1c1ccc(C(C)(O)C(F)(F)F)cc1 (mixture of isomers) be said to have pIC50 at or above 7?
Return: YES

Enquiry: Can CC(C)CN(C[C@H]1CN(S(=O)(=O)c2ccc(N)nc2)CCN1c1ncc(C(O)(C(F)(F)F)C(F)(F)F)cn1)S(C)(=O)=O be said to have pIC50 at or above 7?
Return: YES

Enquiry: Can Nc1ccc(S(=O)(=O)N2CCN(c3ncc(C(O)(C(F)(F)F)C(F)(F)F)cn3)[C@@H](CN3C4COCC3CC(O)C4)C2)cn1 (stereo partly drawn) [Example 99 nonan-7-ol (endo)] be said to have pIC50 at or above 7?
Return: YES

Enquiry: Can CC(O)(c1ccc(N2CCN(S(=O)(=O)c3cccs3)C[C@@H]2CN(C2CC2)S(C)(=O)=O)cc1)C(F)(F)F (mixture of isomers) be said to have pIC50 at or above 7?
Return: YES

Enquiry: Can CC1(CN(C[C@H]2CN(S(=O)(=O)c3cccs3)CCN2c2ccc(C(C)(O)C(F)(F)F)cc2)S(C)(=O)=O)COC1 (mixture of isomers) be said to have pIC50 at or above 7?
Return: NO

Enquiry: Can C[C@H]1COCCN1C[C@H]1CN(S(=O)(=O)c2cccs2)CCN1c1ccc(C(O)(CO)C(F)(F)F)cc1 (single isomer, unassigned) [Example 83 Peak #2] be said to have pIC50 at or above 7?
Return: YES

Enquiry: Can CC(O)(c1ccc(N2CCN(S(=O)(=O)c3cccs3)C[C@@H]2CN2CCNC(=O)C2)cc1)C(F)(F)F (mixture of isomers) be said to have pIC50 at or above 7?
Return: NO

Enquiry: Can O=S(=O)(c1cccs1)N1CCN(c2ccc(C(O)(C(F)(F)F)C(F)(F)F)cc2C#CCCO)CC1 be said to have pIC50 at or above 7?
Return: NO

Enquiry: Can CC(O)C#Cc1cc(C(O)(C(F)(F)F)C(F)(F)F)ccc1N1CCN(S(=O)(=O)c2cccs2)CC1 (racemic) be said to have pIC50 at or above 7?
Return: NO

Enquiry: Can CC(C)CN(C[C@H]1CN(S(=O)(=O)c2cccs2)CCN1c1ccc(C(C)(O)C(F)(F)F)cc1)S(=O)(=O)CC(F)(F)F (mixture of isomers) be said to have pIC50 at or above 7?
Return: NO

Enquiry: Can CC(O)(c1ccc(N2CCN(S(=O)(=O)c3cccs3)C[C@@H]2CN2CC3(COC3)C2)cc1)C(F)(F)F (mixture of isomers) be said to have pIC50 at or above 7?
Return: NO

Enquiry: Can O=S(=O)(c1cccs1)N1CCN(c2ncc(C(O)(C(F)(F)F)C(F)(F)F)cn2)[C@@H](CN2C3COCC2C(O)C3)C1 (stereo partly drawn) [Example 79] be said to have pIC50 at or above 7?
Return: YES

Enquiry: Can CC(C)C(O)C#Cc1cc(C(O)(C(F)(F)F)C(F)(F)F)ccc1N1CCN(S(=O)(=O)c2cccs2)CC1 (racemic) be said to have pIC50 at or above 7?
Return: NO

Enquiry: Can CC1CNC(=O)CN1C[C@H]1CN(S(=O)(=O)c2cccs2)CCN1c1ccc(C(C)(O)C(F)(F)F)cc1 (mixture of isomers) be said to have pIC50 at or above 7?
Return: NO

Enquiry: Can CC(O)(c1ccc(N2CCN(S(=O)(=O)c3cccs3)C[C@@H]2CN2CCC[C@H](O)C2)cc1)C(F)(F)F (mixture of isomers) be said to have pIC50 at or above 7?
Return: NO

Enquiry: Can CC(C)N(C[C@H]1CN(S(=O)(=O)c2cccs2)CCN1c1ccc(C(C)(O)C(F)(F)F)cc1)S(C)(=O)=O (mixture of isomers) be said to have pIC50 at or above 7?
Return: YES

Enquiry: Can Nc1ccc(S(=O)(=O)N2CCN(c3ncc(C(O)(C(F)(F)F)C(F)(F)F)cn3)[C@@H](CC3CCOCC3)C2)s1 be said to have pIC50 at or above 7?
Return: YES

Enquiry: Can CC(O)(c1ccc(N2CCN(S(=O)(=O)c3cccs3)C[C@@H]2CN(c2ccccc2)S(C)(=O)=O)cc1)C(F)(F)F (mixture of isomers) be said to have pIC50 at or above 7?
Return: YES

Enquiry: Can C[C@H]1CN(S(=O)(=O)c2ccccc2N)CCN1c1ncc(C(O)(C(F)(F)F)C(F)(F)F)cn1 be said to have pIC50 at or above 7?
Return: NO

###

# ASSAYED_SYSTEM: GKRP (Glucokinase Regulatory Protein) with human His-hepatic GK (Homo sapiens)
# Sequence (Q14397 1-625): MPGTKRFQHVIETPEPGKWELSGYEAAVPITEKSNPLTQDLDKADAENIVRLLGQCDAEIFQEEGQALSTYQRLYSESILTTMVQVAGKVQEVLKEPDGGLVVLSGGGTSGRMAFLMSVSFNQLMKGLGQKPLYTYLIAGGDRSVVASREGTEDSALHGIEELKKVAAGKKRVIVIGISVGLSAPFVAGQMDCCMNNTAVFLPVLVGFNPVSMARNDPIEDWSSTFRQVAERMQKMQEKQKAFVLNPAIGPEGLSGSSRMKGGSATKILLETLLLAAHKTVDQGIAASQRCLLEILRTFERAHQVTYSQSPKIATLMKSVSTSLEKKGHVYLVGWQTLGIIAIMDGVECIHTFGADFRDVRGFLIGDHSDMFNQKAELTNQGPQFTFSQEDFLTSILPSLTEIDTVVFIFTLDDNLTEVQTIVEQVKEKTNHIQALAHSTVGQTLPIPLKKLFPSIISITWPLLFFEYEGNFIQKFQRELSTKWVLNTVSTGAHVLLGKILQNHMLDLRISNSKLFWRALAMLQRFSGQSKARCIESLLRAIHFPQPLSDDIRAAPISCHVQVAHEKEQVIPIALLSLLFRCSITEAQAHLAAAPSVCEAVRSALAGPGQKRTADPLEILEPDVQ
# PROTOCOL_DESCRIPTION: biochemical
# RECORDED_CONDITIONS: read-out: GK-GKRP EC50 (LC MS/MS-2)
Please go through the items and note down their pEC50.
// scale note: pEC50 = -log10(conc_M); give the bare number

Enquiry: If you can, please state the reported pEC50 value of CC(O)(c1ccc(N2CCN(S(=O)(=O)c3cccs3)C[C@@H]2CSc2ccccc2)cc1)C(F)(F)F (mixture of isomers) .
Return: 7.62

Enquiry: If you can, please state the reported pEC50 value of CC(O)(c1ccc(N2CCN(S(=O)(=O)c3cccs3)C[C@@H]2CN2CCOC[C@@H]2CO)cc1)C(F)(F)F (single isomer, unassigned) [Example 111 Peak #2] .
Return: 6.95

Enquiry: If you can, please state the reported pEC50 value of CC(O)(c1ccc(N2CCN(S(=O)(=O)c3cccs3)C[C@@H]2CN2CCOC[C@H]2CO)cc1)C(F)(F)F (single isomer, unassigned) [Example 110 Peak #2] .
Return: 6.88

Enquiry: If you can, please state the reported pEC50 value of CC(O)(c1ccc(N2CCN(S(=O)(=O)c3cccs3)C[C@@H]2CN2CCOCC2CNS(C)(=O)=O)cc1)C(F)(F)F (single isomer, unassigned) [Example 112 Peak #1] .
Return: 6.01
